I'd appreciate it if you could supply residual activity values for the items below.
- TARGET DESC: EPHB4 (human) (UniProt P54760)
- Sequence (P54760 whole entry, looked up): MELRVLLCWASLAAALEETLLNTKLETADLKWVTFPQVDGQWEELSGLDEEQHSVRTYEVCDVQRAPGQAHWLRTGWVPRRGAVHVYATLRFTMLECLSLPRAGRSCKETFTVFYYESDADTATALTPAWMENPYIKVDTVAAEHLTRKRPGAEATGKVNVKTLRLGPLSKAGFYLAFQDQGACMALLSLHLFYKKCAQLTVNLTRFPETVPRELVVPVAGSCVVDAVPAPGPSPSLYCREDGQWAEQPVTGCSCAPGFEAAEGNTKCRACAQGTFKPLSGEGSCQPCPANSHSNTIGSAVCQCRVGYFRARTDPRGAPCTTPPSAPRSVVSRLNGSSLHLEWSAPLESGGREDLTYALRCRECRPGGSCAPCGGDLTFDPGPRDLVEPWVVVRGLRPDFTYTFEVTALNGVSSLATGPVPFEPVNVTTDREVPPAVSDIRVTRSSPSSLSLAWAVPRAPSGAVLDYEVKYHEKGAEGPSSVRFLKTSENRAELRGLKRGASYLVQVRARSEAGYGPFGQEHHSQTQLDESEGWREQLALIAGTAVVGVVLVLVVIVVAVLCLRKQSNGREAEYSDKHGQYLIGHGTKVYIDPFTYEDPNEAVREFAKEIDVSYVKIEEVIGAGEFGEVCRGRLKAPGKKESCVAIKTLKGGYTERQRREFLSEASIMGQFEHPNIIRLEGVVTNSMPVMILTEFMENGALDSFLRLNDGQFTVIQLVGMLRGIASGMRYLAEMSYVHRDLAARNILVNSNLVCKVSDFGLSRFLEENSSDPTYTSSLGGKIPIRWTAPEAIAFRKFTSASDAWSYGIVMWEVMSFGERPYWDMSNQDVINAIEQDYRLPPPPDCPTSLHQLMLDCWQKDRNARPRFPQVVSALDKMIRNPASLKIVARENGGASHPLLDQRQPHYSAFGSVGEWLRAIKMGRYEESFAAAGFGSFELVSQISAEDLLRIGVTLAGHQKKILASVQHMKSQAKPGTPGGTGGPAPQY
- ASSAY NOTES: radiometric filter-binding kinase assay, Kinase HotSpot
- ASSAY CONDITIONS: compound 0.5 µM; ATP 10 µM
Reply with the number and its unit after it.

Task: Name the recorded residual activity for "N#Cc1c[nH]c2c[nH]/c(=N\Cc3cccnc3)cc2/c1=N\c1ccc(F)c(Cl)c1" .
Output: 85.2%

Task: What would you report for "COc1ccc(C(=O)Nc2sc3c(c2C(N)=O)CCCC3)cc1OC" ?
Output: 93.9%

Task: What would you report for "CCCCc1c(-c2ccc(OC)cc2)[nH]c2nccnc12" ?
Output: 89.5%

Task: What would you report for "COc1cc(Nc2c(C#N)cnc3cc(OCCCN4CCN(C)CC4)c(OC)cc23)c(Cl)cc1Cl" ?
Output: 12.5%

Task: What would you report for "CN(C)CCCn1cc(C2=C(c3c[nH]c4ccccc34)C(=O)NC2=O)c2ccccc21" ?
Output: 86.8%

Task: What would you report for "O=C1NC(=O)c2c1c1c3ccccc3[nH]c1n1cncc21" ?
Output: 105%

Task: What would you report for "O=C1Nc2ccc(Br)cc2/C1=C\c1cc2c([nH]1)CCCC2" ?
Output: 88.6%

Task: What would you report for "Cc1cncc2cccc(S(=O)(=O)N3CCCN(C(=O)CN)C[C@H]3C)c12" ?
Output: 85.1%

Task: What would you report for "O=C1C(Cl)=C(N2C(=O)CCC2=O)C(=O)c2ccccc21" ?
Output: 98.7%

Task: What would you report for "CN(C)S(=O)(=O)c1ccc2c(c1)/C(=C/c1cc3c([nH]1)CCCC3)C(=O)N2" ?
Output: 85.8%

Task: What would you report for "CO[C@@H]1[C@H](N(C)C(=O)c2ccccc2)C[C@H]2O[C@]1(C)n1c3ccccc3c3c4c(c5c6ccccc6n2c5c31)C(=O)NC4" ?
Output: 110%

Task: What would you report for "Ic1cccc(CSc2nnc(-c3ccncc3)o2)c1" ?
Output: 101%

Task: What would you report for "Cn1c2ccccc2c2c3c(c4c5ccccc5n(CCC#N)c4c21)CNC3=O" ?
Output: 96.3%

Task: What would you report for "COc1cc2ncnc(Nc3ccc(OCc4ccccc4)cc3)c2cc1OC" ?
Output: 94.6%

Task: What would you report for "COc1ccc(S(=O)(=O)N(CCO)c2ccccc2CN(C)C/C=C/c2ccc(Cl)cc2)cc1" ?
Output: 104%

Task: What would you report for "Cc1nc(-c2ccccc2)c(-c2ccncc2)o1" ?
Output: 84.8%

Task: What would you report for "N#C/C(=C\c1ccc(O)c(O)c1)C(=O)NCc1ccccc1" ?
Output: 88.2%

Task: What would you report for "O=C1c2ccccc2-c2nc3nnnn3nc21" ?
Output: 97.1%

Task: What would you report for "c1ccc2c(-c3ccncc3)c[nH]c2c1" ?
Output: 89.7%

Task: What would you report for "COc1ccc(Cl)cc1NC(=O)Nc1cc(C)nc2ccccc12" ?
Output: 93.7%

----------
- TARGET DESC: UniProt Q16816
- Sequence (Q16816 whole entry, looked up): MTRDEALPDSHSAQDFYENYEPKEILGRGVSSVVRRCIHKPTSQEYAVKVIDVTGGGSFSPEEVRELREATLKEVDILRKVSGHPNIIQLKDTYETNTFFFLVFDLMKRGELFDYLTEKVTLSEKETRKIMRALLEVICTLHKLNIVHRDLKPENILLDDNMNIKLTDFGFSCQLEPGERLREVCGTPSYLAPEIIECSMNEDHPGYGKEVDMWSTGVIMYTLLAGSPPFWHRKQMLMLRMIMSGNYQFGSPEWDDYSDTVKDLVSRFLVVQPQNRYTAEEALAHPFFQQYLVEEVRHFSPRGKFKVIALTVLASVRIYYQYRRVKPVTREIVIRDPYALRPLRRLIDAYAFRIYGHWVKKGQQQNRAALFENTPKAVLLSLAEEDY
- ASSAY NOTES: radiometric filter-binding kinase assay, Kinase HotSpot
- ASSAY CONDITIONS: compound 0.5 µM; ATP 10 µM
TEST READOUT: residual activity (%)
Provide only the numeric value, understood in %.

Task: Name the recorded residual activity for "O=C1c2ccccc2-c2nc3nnnn3nc21" .
Output: 92.5

Task: What would you report for "CS(=O)(=O)CCNCc1ccc(-c2ccc3ncnc(Nc4ccc(OCc5cccc(F)c5)c(Cl)c4)c3c2)o1" ?
Output: 95.7

Task: What would you report for "c1ccc2c(-c3ccncc3)c[nH]c2c1" ?
Output: 90.3

Task: What would you report for "N#Cc1c[nH]c2c[nH]/c(=N\Cc3cccnc3)cc2/c1=N\c1ccc(F)c(Cl)c1" ?
Output: 92

Task: What would you report for "O=C1NC(=O)c2c1c1c3ccccc3[nH]c1n1cncc21" ?
Output: 70.8

Task: What would you report for "Fc1ccc(-c2nc3n(c2-c2ccncc2)CCS3)cc1" ?
Output: 94.6

Task: What would you report for "CN(C)c1ccc(/C=C2\C(=O)Nc3ccccc32)cc1" ?
Output: 99.1

Task: What would you report for "Cc1cccc(-c2nc(C(C)(C)C)[nH]c2-c2ccc3c(c2)OCO3)n1" ?
Output: 87.6

Task: What would you report for "CN(C)CCCn1cc(C2=C(c3c[nH]c4ccccc34)C(=O)NC2=O)c2ccccc21" ?
Output: 31.9

Task: What would you report for "Cc1cncc2cccc(S(=O)(=O)N3CCCN(C(=O)CN)C[C@H]3C)c12" ?
Output: 65.3

Task: What would you report for "CO[C@@H]1[C@H](N(C)C(=O)c2ccccc2)C[C@H]2O[C@]1(C)n1c3ccccc3c3c4c(c5c6ccccc6n2c5c31)C(=O)NC4" ?
Output: 2.34

Task: What would you report for "C[C@@H]1CCN(C(=O)CC#N)C[C@@H]1N(C)c1ncnc2[nH]ccc12" ?
Output: 90

Task: What would you report for "NC(=O)c1cccc(-c2cc(Nc3ccc(OC(F)(F)F)cc3)ncn2)c1" ?
Output: 99.2

Task: What would you report for "CC(C)(C)c1cc(C=C(C#N)C#N)cc(Br)c1O" ?
Output: 96.7

Task: What would you report for "O=C(c1cc2cc(O)ccc2[nH]1)c1cc2cc(O)ccc2[nH]1" ?
Output: 72.1

Task: What would you report for "COc1cc(Nc2c(C#N)cnc3cc(OCCCN4CCN(C)CC4)c(OC)cc23)c(Cl)cc1Cl" ?
Output: 52.1

Task: What would you report for "COc1ccc2c(c1)/C(=C/c1cnc[nH]1)C(O)=N2" ?
Output: 53.8

Task: What would you report for "COc1ccc(C(=O)Nc2sc3c(c2C(N)=O)CCCC3)cc1OC" ?
Output: 94.3

Task: What would you report for "COc1cc2ncnc(Nc3ccc(Oc4ccccc4)cc3)c2cc1OC" ?
Output: 91.8

Task: What would you report for "CN(C)S(=O)(=O)c1ccc2c(c1)/C(=C/c1cc3c([nH]1)CCCC3)C(=O)N2" ?
Output: 72.4

Task: What would you report for "COc1ccc(S(=O)(=O)N(CCO)c2ccccc2CN(C)C/C=C/c2ccc(Cl)cc2)cc1" ?
Output: 95.4

Data provenance is the kinase profiling compilation of Christmann-Franck et al. (2016).
